# Procedure Details: qHTS Assay for Lipid Storage Modulators in Drosophila S3 Cells
# Condition Summary: BODIPY lipid droplet fluorescence, 18-24 h, cells fed with added oleic acid; series mostly up to 46.1 µM
Hit rate of the full screen: of about 320,000 compounds, about 2,100 (0.66%) were called active. Inconclusive results (about 53%) are left out. The call rests on the fitted dose curve; in most records, active means well fitted inhibition curve with a large enough effect in the signal ratio, with a control signal flat (not every such curve was filed as active); inconclusive means small, poorly fitted or top-dose-only effect, or effect the other way, or a change in a side signal; inactive means flat fitted curve, though single readings scatter; the % refers to the signal ratio. The entries come from a sample that favours actives as a whole.
Pick from y for active, n for inactive when you respond.

Answered examples (3):
C=CCOc1ccccc1CNc1ccc2c(c1)OCCO2 n
CCN1C(=NCc2ccco2)N[C@@H](c2cccc(F)c2)C(C(=O)OC)=C1C n
Cc1ccnc(NS(=O)(=O)c2cccc([N+](=O)[O-])c2)c1 n

Hi, do you know how "Cc1cccc(NCc2ccc(Br)cc2)n1" came out in this test?
n

Hi, do you know how "O=C(Nc1nc2c(F)cc(F)cc2s1)c1ccc2c(c1)OCCO2" came out in this test?
n

Hi, do you know how "O=C(CCl)N(C/C=C/c1ccccc1)c1ccc2c(c1)OCCO2" came out in this test?
n

Hi, do you know how "O=C(CNC(=O)c1ccco1)N=Nc1c(O)[nH]c2ccc([N+](=O)[O-])cc12" came out in this test?
y

Hi, do you know how "O=[N+]([O-])c1cccnc1NCCNc1ncc(C(F)(F)F)cc1Cl" came out in this test?
n

Hi, do you know how "O=C(Nc1nc2c(F)cc(F)cc2s1)c1ccc([N+](=O)[O-])o1" came out in this test?
y

Hi, do you know how "COc1cc(/C=N/n2c(-c3cc(C)[nH]n3)n[nH]c2=S)ccc1O" came out in this test?
n

Hi, do you know how "O=C(CNC(=O)c1ccco1)N=Nc1c(O)[nH]c2ccc(Br)cc12" came out in this test?
n
